# credit: patent US20250032524A1

system: P. aeruginosa; assay: MIC broth microdilution (CLSI); format: cell-based; conditions: Pseudomonas aeruginosa, read-out: Activity (MIC), strain NPAE1313, MDR Clinical isolate
Each item that follows carries a reported MIC.

Worked examples, 2 molecules total:
C[C@H](N)[C@@H]1CC[C@@H](N)[C@@H](O[C@@H]2[C@@H](N)[C@H](O)[C@@H](NC(=O)[C@@H](O)[C@H](F)CN)[C@H](O)[C@H]2O[C@@H]2O[C@H](CO)[C@@H](O[C@H]3O[C@@H](CN)[C@@H](O)[C@H](O)[C@H]3N)[C@H]2O)O1 | > 16 µg/mL
NCC[C@H](O)C(=O)N[C@@H]1[C@@H](O)[C@H](N)[C@@H](O[C@H]2O[C@H](CN)CC[C@H]2N)[C@H](O[C@@H]2O[C@H](CO)[C@@H](O[C@H]3O[C@@H](CN)[C@@H](O)[C@H](O)[C@H]3N)[C@H]2O)[C@H]1O | < 16 µg/mL

Lab request: please report MIC under test system P. aeruginosa for `C[C@H](N)[C@@H]1CC[C@@H](N)[C@@H](O[C@@H]2[C@@H](N)[C@H](O)[C@@H](NC(=O)[C@@H](O)CCN)[C@H](O)[C@H]2O[C@@H]2O[C@H](CO)[C@@H](O[C@H]3O[C@@H](CN)[C@@H](O)[C@H](O)[C@H]3N)[C@H]2O)O1`
< 16 µg/mL

Further, for `NC[C@@H]1CC[C@@H](N)[C@@H](O[C@@H]2[C@@H](N)[C@H](O)[C@@H](NC(=O)[C@@H](O)[C@H](F)CN)[C@H](O)[C@H]2O[C@@H]2O[C@H](CO)[C@@H](O[C@H]3O[C@@H](CN)[C@@H](O)[C@H](O)[C@H]3N)[C@H]2O)O1` ?
> 16 µg/mL

* * *

tested on: E. coli; assay: MIC broth microdilution (CLSI); type: cell-based; conditions: Escherichia coli, strain NECO0244, AAC(6')-Ib; read-out: Activity (MIC)
Each item that follows carries a reported MIC.

C[C@H](N)[C@@H]1CC[C@@H](N)[C@@H](O[C@@H]2[C@@H](N)[C@H](O)[C@@H](NC(=O)[C@@H](O)CCN)[C@H](O)[C@H]2O[C@@H]2O[C@H](CO)[C@@H](O[C@H]3O[C@@H](CN)[C@@H](O)[C@H](O)[C@H]3N)[C@H]2O)O1 | < 16 µg/mL

Let us move to another entry and its MIC.
Item `C[C@@H](N)[C@@H]1CC[C@@H](N)[C@@H](O[C@@H]2[C@@H](N)[C@H](O)[C@@H](NC(=O)[C@@H](O)CCN)[C@H](O)[C@H]2O[C@@H]2O[C@H](CO)[C@@H](O[C@H]3O[C@@H](CN)[C@@H](O)[C@H](O)[C@H]3N)[C@H]2O)O1` has what recorded MIC?
< 16 µg/mL

* * *

test system: E. coli; assay: MIC broth microdilution (CLSI); assay type: cell-based; settings: Escherichia coli, strain NECO0002, WT; read-out: Activity (MIC)
Each item that follows carries a reported MIC.

C[C@@H](N)[C@@H]1CC[C@@H](N)[C@@H](O[C@@H]2[C@@H](N)[C@H](O)[C@@H](NC(=O)[C@@H](O)[C@H](F)CN)[C@H](O)[C@H]2O[C@@H]2O[C@H](CO)[C@@H](O[C@H]3O[C@@H](CN)[C@@H](O)[C@H](O)[C@H]3N)[C@H]2O)O1 [Compound 4] | < 16 µg/mL
C[C@H](N)[C@@H]1CC[C@@H](N)[C@@H](O[C@@H]2[C@@H](N)[C@H](O)[C@@H](NC(=O)[C@@H](O)[C@H](F)CN)[C@H](O)[C@H]2O[C@@H]2O[C@H](CO)[C@@H](O[C@H]3O[C@@H](CN)[C@@H](O)[C@H](O)[C@H]3N)[C@H]2O)O1 [Compound 3] | < 16 µg/mL
NC[C@@H]1CC[C@@H](N)[C@@H](O[C@@H]2[C@@H](N)[C@H](O)[C@@H](NC(=O)[C@@H](O)[C@H](F)CN)[C@H](O)[C@H]2O[C@@H]2O[C@H](CO)[C@@H](O[C@H]3O[C@@H](CN)[C@@H](O)[C@H](O)[C@H]3N)[C@H]2O)O1 [Compound 1] | < 16 µg/mL

Lab request: please report MIC under test system E. coli for CN[C@@H](C)[C@@H]1CC[C@@H](N)[C@@H](O[C@@H]2[C@@H](N)[C@H](O)[C@@H](NC(=O)[C@@H](O)[C@H](F)CN)[C@H](O)[C@H]2O[C@@H]2O[C@H](CO)[C@@H](O[C@H]3O[C@@H](CN)[C@@H](O)[C@H](O)[C@H]3N)[C@H]2O)O1 [Compound 7]
< 16 µg/mL
